Where do these numbers come from? They come from ChEMBL document CHEMBL1141201.

Exercise: for every item that follows, state its recorded Ki.
Molecular target: Aminopeptidase N (Escherichia coli K-12)
Sequence (P04825 whole entry): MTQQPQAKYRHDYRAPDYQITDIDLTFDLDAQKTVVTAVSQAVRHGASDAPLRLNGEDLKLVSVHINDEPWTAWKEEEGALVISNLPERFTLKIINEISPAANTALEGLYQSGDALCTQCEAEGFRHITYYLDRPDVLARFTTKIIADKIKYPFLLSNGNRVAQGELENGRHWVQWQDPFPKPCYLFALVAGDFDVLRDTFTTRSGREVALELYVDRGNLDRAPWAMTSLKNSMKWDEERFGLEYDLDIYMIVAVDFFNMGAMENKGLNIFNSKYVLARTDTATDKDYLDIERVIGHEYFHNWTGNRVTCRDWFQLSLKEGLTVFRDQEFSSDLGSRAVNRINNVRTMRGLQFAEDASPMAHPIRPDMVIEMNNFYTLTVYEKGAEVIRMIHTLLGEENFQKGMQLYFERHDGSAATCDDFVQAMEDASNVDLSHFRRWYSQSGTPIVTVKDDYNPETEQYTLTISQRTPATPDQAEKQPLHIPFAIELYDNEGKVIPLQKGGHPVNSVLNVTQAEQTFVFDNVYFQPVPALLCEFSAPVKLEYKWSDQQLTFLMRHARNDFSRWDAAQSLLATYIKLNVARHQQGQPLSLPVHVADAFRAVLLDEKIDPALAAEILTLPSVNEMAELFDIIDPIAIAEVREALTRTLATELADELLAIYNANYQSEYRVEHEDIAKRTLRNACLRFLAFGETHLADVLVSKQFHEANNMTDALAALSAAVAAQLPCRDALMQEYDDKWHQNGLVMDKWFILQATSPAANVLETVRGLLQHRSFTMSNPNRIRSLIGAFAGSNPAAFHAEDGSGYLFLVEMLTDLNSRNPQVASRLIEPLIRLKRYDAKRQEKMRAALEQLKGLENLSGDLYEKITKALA
Answer format: numeric, nM implied, no suffix.

Per the record, CC(CP(=O)(O)C(C)N)C(=O)O (centres undefined) has Ki of 10000

Given item C/C(=C\P(=O)(O)C(C)N)C(=O)O (centres undefined) , the value recorded as its Ki is 1000

Value of measured Ki for the entry CCCCCCCCC(CP(=O)(O)C(C)N)C(=O)O (centres undefined) : 1100
